These measurements were taken from PubChem BioAssay.

- Test Details: binders from COS7 lysate, DM2A8 probe, primary screen, torsin A project, cell lysate, small-molecule microarray, fluorescence 635/667 (AID 1065)
- Setup Conditions: higher = more signal, COS7 lysate expressing mutant human TOR1A
Measurement Type: composite z-score

>>> experimental_value("C=CC[C@]1(C(=O)N2CCOCC2)N=C(c2ccc(OCCCO)cc2)O[C@H]1c1ccccc1")
0.905
>>> experimental_value("CC(C)C(=C=CC[C@@H](O)c1ccccc1OCCO)C[C@@H](O)c1ccccn1")
-0.0682
>>> experimental_value("CS(=O)(=O)CCOC(=O)C1=CC(CCCO)=CC(c2cccs2)N(Cc2cc3c(cc2Br)OCO3)C=C1C(=O)OCCS(C)(=O)=O (configuration not stated)")
0.24
>>> experimental_value("COCCOC(=O)N1C(=O)[C@@]2(c3cc(C#CC4(O)CCCCCC4)ccc31)[C@H](C(=O)N1CCCCCCC1)[C@H]1C(=O)O[C@H](c3ccccc3)[C@H](c3ccccc3)N1[C@@H]2c1ccccc1OCCO")
0.859
>>> experimental_value("CCOC(=O)C[C@H]1[C@H](OC(=O)Cc2ccc3c(c2)OCO3)[C@@H](NC(=O)C2CCCCC2)c2cc(OCCCO)ccc2N1C(=O)Cc1ccc(OC)cc1")
0.0664
>>> experimental_value("COC(=O)[C@]1(Cc2ccccc2N=[N+]=[N-])N=C(c2ccc(OCCCO)cc2)O[C@@H]1c1ccccc1N=[N+]=[N-]")
-0.126
>>> experimental_value("CC=CC(O)C1C=CC2C(=O)N(c3ccccc3)C(=O)C2N1Nc1ccc(C(C)C)cc1 (configuration not stated)")
0.238
>>> experimental_value("O=C1OCCC=C[C@H]2OC34C=CCN(Cc5ccccc5)C(=O)[C@H]3N(CCCCCO)C(=O)[C@@H]4C12 (some centres not stated)")
1.4
>>> experimental_value("CCCN1C(=O)[C@]2(COC(c3ccc(OCCCO)cc3)=N2)Cc2ccccc21")
0.325
>>> experimental_value("CC(C)NC(=O)[C@@H]1c2ccccc2C(=O)N(Cc2ccccc2Cl)[C@H]1c1ccc(CO)cc1")
0.337
>>> experimental_value("N[C@@H](Cc1ccccc1)Cn1cc(-c2ccccc2)nn1")
0.556
>>> experimental_value("O=C(O)[C@H]1C[C@H]2C(=O)NCC(=O)N2[C@H]1c1ccc(O)cc1")
0.202
>>> experimental_value("O=C1OCC=C[C@H]2OC34C=CCN(c5ccc(Cl)cc5)C(=O)[C@H]3N(CCCCCCO)C(=O)[C@@H]4[C@@H]12 (some centres not stated)")
-0.793
>>> experimental_value("COC(=O)[C@@]1(Cc2ccc(F)cc2)[C@H]2c3cc(C(=O)N(C)C)n(CCc4ccccn4)c3C[C@H]2CN1C(=O)c1ccccc1")
0.466
>>> experimental_value("CC(C)C(O)C1C=CC2C(=O)N(c3ccccc3)C(=O)C2N1Nc1ccc(C#N)cc1 (configuration not stated)")
0.303
>>> experimental_value("CC(=O)NCCCC[C@@H]1NC(=O)[C@H]2C[C@@H](C(=O)NCCCCCC[N+](C)(C)C)[C@@H](c3cccc(OCCO)c3)N2C1=O")
0.645
>>> experimental_value("C=CC(COC(C)=O)NS(=O)(=O)c1ccc(Br)cc1 (configuration not stated)")
0.58

----------
- Test Details: binders of probe aFGF10 on microarray, primary screen, stem cell growth factor project, biochemical, small-molecule microarray, fluorescence 635/667 (AID 1071);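 further: score merges 667 nm spot intensity and signal to noise from triplicate slides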
- Setup Conditions: higher = more signal
Documented composite z-score across a set of molecules
Measurement Type: composite z-score

>>> experimental_value("CCN(CC)c1ccc(N2CC=CC34O[C@@H]5/C=C\\CCCOC(=O)C5[C@H]3C(=O)N(C(CO)C(C)C)[C@@H]4C2=O)cc1 (stereo not given in full)")
-0.381
>>> experimental_value("[N-]=[N+]=NCc1ccccc1C[C@]1(C(=O)NCCN2CCOCC2)N=C(c2ccc(OCCCO)cc2)O[C@H]1c1ccccc1N=[N+]=[N-]")
0.855
>>> experimental_value("COc1ccc(C#Cc2ccc3c(c2)[C@]2(C(=O)N3)[C@H](C(=O)NC[C@H](O)c3ccccc3)[C@H]3C(=O)O[C@H](c4ccccc4)[C@H](c4ccccc4)N3[C@@H]2c2ccccc2OCCO)cc1")
0.688
>>> experimental_value("C=C(COC)/C(=C/C[C@H](OC(=O)c1ccncc1)c1cccc(OCCO)c1)c1cc(C(=O)OC)ccc1OC")
0.783
>>> experimental_value("Cc1ccc(S[C@]2(C(=O)NCCN3CCOCC3)CC(=O)N(Cc3cc(C(F)(F)F)cc(C(F)(F)F)c3)[C@@H]2c2ccc(CO)cc2I)cc1")
-0.44
>>> experimental_value("CC(C)Cc1ccc(CN2CC[C@@H](NS(=O)(=O)c3ccccc3)C2)cc1")
-0.188
>>> experimental_value("O=C1O[C@H](c2ccccc2)[C@H](c2ccccc2)N2[C@H]1[C@@H](C(=O)Nc1nc3ccccc3s1)[C@]1(C(=O)Nc3ccccc31)[C@H]2c1ccc(O)cc1")
0.405
>>> experimental_value("COC(=O)[C@@]1(Cc2ccc(F)cc2)[C@H]2c3cc(C(=O)N4CCCC4)n(Cc4cccc5ccccc45)c3C[C@H]2CN1C(=O)c1ccccc1")
0.62
>>> experimental_value("CC(C)CNC(=O)[C@@H]1c2ccccc2C(=O)N(Cc2cc(C(F)(F)F)cc(C(F)(F)F)c2)[C@H]1c1ccc(CO)cc1")
-0.365
>>> experimental_value("O=C1OCCC=C[C@H]2OC34C=CCN(Cc5ccccc5)C(=O)[C@H]3N(CCCCCCO)C(=O)[C@@H]4C12 (stereo not given in full)")
-0.384
>>> experimental_value("C=C(COC)C(=O)CC[C@H](OC(C)=O)c1cccc(OCCO)c1")
0.553
>>> experimental_value("CC(C)NC(=O)[C@@]1(Cc2ccccc2I)c2ccccc2C(=O)N(Cc2ccccc2)[C@H]1c1ccc(CO)cc1")
0.554
>>> experimental_value("Cc1ccc(S[C@]2(C(=O)NCC(C)C)CC(=O)N(Cc3ccccc3)[C@@H]2c2ccc(CO)cc2I)cc1")
0.161
>>> experimental_value("CCOC(=O)C[C@H]1[C@H](OC(=O)Cc2ccc3c(c2)OCO3)[C@@H](NC(=O)C2CCCCC2)c2cc(OCCCO)ccc2N1C(=O)Cc1ccc(OC)cc1")
0.145
>>> experimental_value("CC(=O)Nc1cc(Br)ccc1C(=O)O")
0.239
